system: Pseudomonas aeruginosa; assay: Antibacterial activity against Pseudomonas aeruginosa ATCC 9027 at 10 ug/mL after 24 hrs by disc diffusion method; type: functional; conditions: ATCC 9027, 24 h, read-out: IZ
assay.endpoint: zone of inhibition at 10 µg/mL (mm)
Answers are plain numbers, in mm.

Reference set, count: 2
Prompt: Endpoint output: zone of inhibition at 10 µg/mL of O=[N+]([O-])c1ccc(C2ONC3=C2C(c2ccccc2)N(Cc2ccccc2)C2CCCCC32)cc1 (stereo not given) . Value?
Response: 6

Prompt: Endpoint output: zone of inhibition at 10 µg/mL of c1ccc(CN2C(c3ccccc3)C3=C(NOC3c3ccco3)C3CCCCC32)cc1 (stereo not given) . Value?
Response: 4

Below are some compounds; for each one, tell me its zone of inhibition at 10 µg/mL.
1. c1ccc(CN2C(c3ccccc3)C3=C(NOC3c3c[nH]c4ccccc34)C3CCCCC32)cc1 (stereo not given)
2. O=[N+]([O-])c1cccc(C2ONC3=C2C(c2ccccc2)N(Cc2ccccc2)C2CCCCC32)c1 (stereo not given)
3. c1ccc(CN2C(c3ccccc3)C3=C(NOC3c3cccnc3)C3CCCCC32)cc1 (stereo not given)

Response:
1: 5; 2: 5; 3: 4
